Test system: U251
Entries and their GI50 values follow.
Report the figure in nM without appending any unit label.

Observe how each entry below is paired with its result.
[
  {
    "structure": "COc1ccc([P+](CCCCOc2cc(O)c3c(=O)cc(-c4ccccc4)oc3c2)(c2ccc(OC)cc2)c2ccc(OC)cc2)cc1",
    "value.units": "nM",
    "GI50": 276
  },
  {
    "structure": "O=c1cc(-c2ccccc2)oc2cc(OCCCC[P+](C3CCCCC3)(C3CCCCC3)C3CCCCC3)cc(O)c12",
    "value.units": "nM",
    "GI50": 287
  },
  {
    "structure": "COc1c(C)cc([P+](CCCCOc2cc(O)c3c(=O)cc(-c4ccccc4)oc3c2)(c2cc(C)c(OC)c(C)c2)c2cc(C)c(OC)c(C)c2)cc1C",
    "value.units": "nM",
    "GI50": 67
  }
]

### Prompt Quick one: GI50 for "O=c1cc(-c2ccccc2)oc2cc(OCCCC[P+](c3ccccc3)(c3ccccc3)c3ccccc3)cc(O)c12" ?
### Response 315

### Prompt So what does the record say about GI50 for "Cc1ccccc1[P+](CCCCOc1cc(O)c2c(=O)cc(-c3ccccc3)oc2c1)(c1ccccc1C)c1ccccc1C" ?
### Response 225

### Prompt So what does the record say about GI50 for "Cc1ccc([P+](CCCCOc2cc(O)c3c(=O)cc(-c4ccccc4)oc3c2)(c2ccc(C)cc2)c2ccc(C)cc2)cc1" ?
### Response 279

### Prompt Given "O=c1cc(-c2ccccc2)oc2cc(OCCCC[P+](c3ccc(F)cc3)(c3ccc(F)cc3)c3ccc(F)cc3)cc(O)c12" , state its recorded GI50.
### Response 1670

### Prompt Quick check: GI50 of "O=c1cc(-c2ccccc2)oc2cc(OCCCC[P+](c3ccccc3)(c3ccccc3)c3ccccn3)cc(O)c12" ?
### Response 335
